The measurements presented in this section are drawn from the supplement of paper PMC8617591.

Test system: Mycobacterium tuberculosis Erdman (autoluminescent)
assay: Einf, fitted maximum growth inhibition of combination (fraction); higher = stronger maximal inhibition
experimental_parameters: in vitro model: valerate; time point: constant (~7 days, model-specific)
quantity: Einf
// no unit, no text: just the number

State the recorded Einf for this entry: CC(C)/N=c1\cc2n(-c3ccc(Cl)cc3)c3ccccc3nc-2cc1Nc1ccc(Cl)cc1 [clofazimine] + NNC(=O)c1ccncc1 [isoniazid]
0.925

Another compound to check: COc1nc2ccc(Br)cc2cc1[C@@H](c1ccccc1)[C@@](O)(CCN(C)C)c1cccc2ccccc12 [bedaquiline] + CO[C@H]1/C=C/O[C@@]2(C)Oc3c(C)c(O)c4c(O)c(c(/C=N/N5CCN(C)CC5)c(O)c4c3C2=O)NC(=O)/C(C)=C\C=C\[C@H](C)[C@H](O)[C@@H](C)[C@@H](O)[C@@H](C)[C@H](OC(C)=O)[C@@H]1C [rifampicin]
0.914

---

System: Mycobacterium tuberculosis Erdman (autoluminescent)
assay: Einf, fitted maximum growth inhibition of three-drug combination (fraction); higher = stronger maximal inhibition
experimental_parameters: in vitro model: standard 7H9 glycerol; time point: constant = terminal
quantity: Einf

State the recorded Einf for this entry: NNC(=O)c1ccncc1 [isoniazid] + O=[N+]([O-])c1cn2c(n1)OC[C@@H](OCc1ccc(OC(F)(F)F)cc1)C2 [pretomanid] + CO[C@H]1/C=C/O[C@@]2(C)Oc3c(C)c(O)c4c(O)c(c(/C=N/N5CCN(C6CCCC6)CC5)c(O)c4c3C2=O)NC(=O)/C(C)=C\C=C\[C@H](C)[C@H](O)[C@@H](C)[C@@H](O)[C@@H](C)[C@H](OC(C)=O)[C@@H]1C [rifapentine]
0.884

Another molecule to check: COc1c(N2C[C@@H]3CCCN[C@@H]3C2)c(F)cc2c(=O)c(C(=O)O)cn(C3CC3)c12 [moxifloxacin] + NC(=O)c1cnccn1 [pyrazinamide] + CO[C@H]1/C=C/O[C@@]2(C)Oc3c(C)c(O)c4c(O)c(c(/C=N/N5CCN(C6CCCC6)CC5)c(O)c4c3C2=O)NC(=O)/C(C)=C\C=C\[C@H](C)[C@H](O)[C@@H](C)[C@@H](O)[C@@H](C)[C@H](OC(C)=O)[C@@H]1C
0.882

---

System: Mycobacterium tuberculosis Erdman (autoluminescent)
assay: AUC25, normalised area under dose response up to IC25 (three-drug combination) (fraction (0-1)); higher = more potent at low dose
experimental_parameters: in vitro model: cholesterol-high 0.2 mM; time point: constant (~7 days, model-specific)
quantity: AUC25
// no unit, no text: just the number

State the recorded AUC25 for this entry: CC(C)/N=c1\cc2n(-c3ccc(Cl)cc3)c3ccccc3nc-2cc1Nc1ccc(Cl)cc1 [clofazimine] + NNC(=O)c1ccncc1 [isoniazid] + O=[N+]([O-])c1cn2c(n1)OC[C@@H](OCc1ccc(OC(F)(F)F)cc1)C2 [pretomanid]
0.102

---

Tested on: Mycobacterium tuberculosis Erdman (autoluminescent)
assay: Einf, fitted maximum growth inhibition of three-drug combination (fraction); higher = stronger maximal inhibition
experimental_parameters: in vitro model: acidic pH 5.7; time point: terminal (~4-5 doublings, model-specific)
quantity: Einf
// no unit, no text: just the number

Record lookup: for Mycobacterium tuberculosis Erdman (autoluminescent), what Einf belongs to CC(C)/N=c1\cc2n(-c3ccc(Cl)cc3)c3ccccc3nc-2cc1Nc1ccc(Cl)cc1 [clofazimine] + CC[C@@H](CO)NCCN[C@@H](CC)CO [ethambutol] + NNC(=O)c1ccncc1 [isoniazid] ?
0.955

Another molecule to check: COc1nc2ccc(Br)cc2cc1[C@@H](c1ccccc1)[C@@](O)(CCN(C)C)c1cccc2ccccc12 [bedaquiline] + CC(=O)NC[C@H]1CN(c2ccc(N3CCOCC3)c(F)c2)C(=O)O1 [linezolid] + CO[C@H]1/C=C/O[C@@]2(C)Oc3c(C)c(O)c4c(O)c(c(/C=N/N5CCN(C6CCCC6)CC5)c(O)c4c3C2=O)NC(=O)/C(C)=C\C=C\[C@H](C)[C@H](O)[C@@H](C)[C@@H](O)[C@@H](C)[C@H](OC(C)=O)[C@@H]1C [rifapentine]
0.986

Another molecule to check: NNC(=O)c1ccncc1 [isoniazid] + COc1c(N2C[C@@H]3CCCN[C@@H]3C2)c(F)cc2c(=O)c(C(=O)O)cn(C3CC3)c12 [moxifloxacin] + CO[C@H]1/C=C/O[C@@]2(C)Oc3c(C)c(O)c4c(O)c(c(/C=N/N5CCN(C6CCCC6)CC5)c(O)c4c3C2=O)NC(=O)/C(C)=C\C=C\[C@H](C)[C@H](O)[C@@H](C)[C@@H](O)[C@@H](C)[C@H](OC(C)=O)[C@@H]1C [rifapentine]
0.974

Another molecule to check: CC[C@@H](CO)NCCN[C@@H](CC)CO [ethambutol] + O=[N+]([O-])c1cn2c(n1)OC[C@@H](OCc1ccc(OC(F)(F)F)cc1)C2 [pretomanid] + NC(=O)c1cnccn1 [pyrazinamide]
0.962
